TARGET SYSTEM: COX I (Homo sapiens)
Construct: made in house; baculovirus-infected insect cells by own knowledge of the cited Barnett et al. 1994
Sequence (P23219 24-599): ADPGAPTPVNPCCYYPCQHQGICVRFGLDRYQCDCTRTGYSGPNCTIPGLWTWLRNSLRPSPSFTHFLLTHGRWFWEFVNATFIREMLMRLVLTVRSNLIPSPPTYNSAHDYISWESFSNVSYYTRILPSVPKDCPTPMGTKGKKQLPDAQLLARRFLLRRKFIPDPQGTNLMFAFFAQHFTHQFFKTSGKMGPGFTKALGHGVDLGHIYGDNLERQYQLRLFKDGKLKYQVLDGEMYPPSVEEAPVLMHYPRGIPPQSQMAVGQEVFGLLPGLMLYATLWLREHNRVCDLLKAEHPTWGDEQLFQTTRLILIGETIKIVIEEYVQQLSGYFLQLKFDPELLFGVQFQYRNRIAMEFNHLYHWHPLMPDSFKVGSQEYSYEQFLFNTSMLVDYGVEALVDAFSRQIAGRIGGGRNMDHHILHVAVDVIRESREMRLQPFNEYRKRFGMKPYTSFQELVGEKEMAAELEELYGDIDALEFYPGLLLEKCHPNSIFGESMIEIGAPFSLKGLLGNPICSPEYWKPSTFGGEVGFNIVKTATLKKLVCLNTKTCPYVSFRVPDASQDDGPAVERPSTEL
ASSAY TEXT: Inhibition of COX I in vitro (radiometric assay, 14C arachidonic acid, partially purified enzyme)
Format: biochemical
STATED CONDITIONS: partially purified COX I, 20 micromolar arachidonic acid, 10 min preincubation, room temperature; read-out: COX I IC50

{"COMPOUND": "Cc1cc(Cc2ccc(NS(C)(=O)=O)cc2)n(C)c1C(=O)c1ccc(Cl)cc1", "IC50": "11 µM"}
{"COMPOUND": "Cc1ccc(C(=O)c2ccc(Cc3ccc(NS(=O)(=O)CCO)cc3F)n2C)cc1", "IC50": "10 µM"}
{"COMPOUND": "Cc1cc(C(C)c2ccc(NS(C)(=O)=O)cc2)n(C)c1C(=O)c1ccc(Cl)cc1 (stereo not drawn)", "IC50": "7.5 µM"}
